assay: yeast display, Sf9 membrane polyspecificity reagent, FACS + sequencing; frameworks hold sequencing errors
attribute-measured: polyreactivity (PSR sort gate)

[
  {
    "chain": "QVQLVESGGGLVQAGGILRLRCAASGSTYGYYAMGWSRQAPGKERELVAAISGSGGRTYYADSVKGRFTISRDNAKNTVYLQMNSLKPEDTAVYYCNTATKNIYDYCGQGTQVTVSS",
    "result": "high polyreactivity"
  },
  {
    "chain": "QVQLVESGGGLVQAGGSLRLSCAASGSTFVYYAMGWYRQAPGKERELVAAIRYSGASTYYADSVKGRFTISRDNAKNTVYLQMNSLKPEDTAVYYCAASSRTFGYKYYYWGQGTQVTVSS",
    "result": "high polyreactivity"
  },
  {
    "chain": "QVQLVESGGGLVQAGGSLRLSCSASGITFTGYGMGWYRQAPGKERELVAAIRLRTGSTYYADSVKGRFTISRDNAKNTVYLQMNSLKPEDTAVYYCAKKWSSKYWGQGTQVTVSS",
    "result": "high polyreactivity"
  },
  {
    "chain": "QLQLVDSGGGLVQAGGSLRLSCAASGRTFRIYAMGWYRKAPGKERELVASITGGGTTNYADSVKGRFTISRDNAKYTVYLQMNSLKPEDTAVYYCAARSRTRPNVPGYGYWGQGTQVTVSS",
    "result": "high polyreactivity"
  },
  {
    "chain": "QVQLVESGGGLVQAGGSLRLSCAASGRIFGGYAMGWYRQAPGKEWEVVAAIRDSGRTYYADSVKGRFTISRDNAKNTVYLQMNSLKPEDTAVYYCAADAHSSYSPFRWYDYWGQGTQVTVSS",
    "result": "low polyreactivity"
  },
  {
    "chain": "QVQLVESGGGLVQAGGILRLSCASYGSTFALYAMGWYRPAPGKERELVATITGSGGITYYADSVKGRFTISRDNAKNTVYLQMNSLKPVDTAVYYCAADPYTLYWYYWYGTSGFDYWGQGTQVTVSS",
    "result": "low polyreactivity"
  }
]

Here is the next item to consider.
Inquiry: Please report the measured polyreactivity (PSR sort gate) for QVQLVESGGGLVQAGGSLRLSCAASGLTFRKYAMGWYRQAPGKERELVAGISSGGSTYYADSVKGRFTISRDNAKNTVYLQMNSLKPEDTAVYYCAAKALRTMYYWGQGTQVTVSS
Reply text: high polyreactivity
